Test: Selectivity index, ratio of IC50 for human THP1 cells to IC50 for Plasmodium falciparum
Format: toxicity, cell-based, THP-1
Conditions: human, THP-1 cells
Recorded selectivity index by entry
readout: selectivity index

# compound, observed-value
rows = [
    ("O=c1cc[nH]c2cc3c(cc12)OCCO3", 2.3),
    ("CN(C)c1nc2ccc(NC=C3C(=O)OC(C)(C)OC3=O)cc2o1", "> 6.25"),
    ("Nc1ccc2[nH]ccc(=O)c2c1", "> 5.5"),
    ("CC1(C)OC(=O)C(=CNc2cccc([N+](=O)[O-])c2)C(=O)O1", "> 4.1"),
    ("CC1(C)OC(=O)C(=CNc2ccc3ncsc3c2)C(=O)O1", "> 8.3"),
    ("Cc1nc2ccc(NC=C3C(=O)OC(C)(C)OC3=O)cc2s1", "> 4.1"),
    ("CC1(C)OC(=O)C(=CNc2cccc(-c3nc4ccccc4s3)c2)C(=O)O1", 4),
    ("CC1(C)OC(=O)C(=CNc2ccc3c(c2)OCO3)C(=O)O1", 25),
    ("CC1(C)OC(=O)C(=CNc2ccc([N+](=O)[O-])cc2)C(=O)O1", "> 6.2"),
    ("C[C@H]1c2cccc(O)c2C(=O)C2=C(O)[C@]3(O)C(=O)C(C(N)=O)=C(O)[C@@H](N(C)C)[C@@H]3[C@@H](O)[C@@H]21 [DOXYCYCLINE]", 3.1),
    ("CN(C)c1nc2cc3[nH]ccc(=O)c3cc2o1", "> 3.1"),
    ("O=c1cc[nH]c2ccc([N+](=O)[O-])cc12", 2.5),
]
